- Test system: pSTAT6 in BEAS-2B human cell line
- assay: Inhibition of IL-13 induced pSTAT6 in BEAS
- Format: cell-based
- test parameters: Homo sapiens, BEAS-2B, 0.5 h; IL-13 trigger, 30 min; parent compound
pIC50: −log10 of the molar value.
quantity kind: pIC50

Exam item: Can you share its pIC50? I mean this compound: CCOC(=O)C1(F)CCN(CCNC(=O)c2nn(-c3cc4c(cc3OC)NCCO4)c3cc(-c4cnn5cccnc45)ncc23)CC1 [Example 28]
Marked response: 7.30 to 8.30

Exam item: Same for COc1cc2c(cc1-n1nc(C(=O)NCCN3CCC(C(=O)OC4CCN(C)C4)CC3)c3cnc(-c4cnn5cccnc45)cc31)OCCN2 (centres unmarked) [Example 22]
Marked response: 7.30 to 8.30

Exam item: Same for COc1cc2c(cc1-n1nc(C(=O)NCCN3CC[C@@H](C(=O)O[C@@H]4CCN(CCF)C4)C3)c3cnc(-c4cnn5cccnc45)cc31)OCCN2 [Example 55]
Marked response: 7.30 to 8.30

Exam item: Same for CCOC(=O)C1CCCN(CCNC(=O)c2nn(-c3cc4c(cc3OC)NCCO4)c3cc(-c4cnn5cccnc45)ncc23)C1 (centres unmarked) [Example 27]
Marked response: 7.30 to 8.30

Exam item: Same for COc1cc2c(cc1-n1nc(C(=O)NCCN3CCC(C(=O)O[C@H]4CCN(C)C4)CC3)c3cnc(-c4cnn5cccnc45)cc31)OCCN2 [Example 24]
Marked response: 7.30 to 8.30

Exam item: Same for COc1cc2c(cc1-n1nc(C(=O)NCCN3CCC(CC(=O)O[C@@H]4CCN(CCF)C4)CC3)c3cnc(-c4cnn5cccnc45)cc31)OCCN2 [Example 52]
Marked response: 7.30 to 8.30

Exam item: Same for COc1cc2c(cc1-n1nc(C(=O)NCCN3CCC(C(=O)OCC(F)(F)F)CC3)c3cnc(-c4cnn5cccnc45)cc31)OCCN2 [Example 13]
Marked response: ≥ 8.30

Exam item: Same for CCOC(=O)C1CCN(CCOC(=O)Nc2nn(-c3cc4c(cc3OC)NCCS4)c3cc(-c4cnn5cccnc45)ncc23)CC1 [Example 4]
Marked response: ≥ 8.30

Exam item: Same for CCCOC(=O)CN(C)CCNC(=O)c1nn(-c2cc3c(cc2OC)NCCO3)c2cc(-c3cnn4cccnc34)ncc12 [Example 6]
Marked response: 7.30 to 8.30

Exam item: Same for CCOC(=O)C1CCN(CCOC(=O)Nc2nn(-c3cc4c(cc3OC)NCCO4)c3cc(-c4cnn5cccnc45)ncc23)CC1 [Example 41]
Marked response: ≥ 8.30

Exam item: Same for COc1cc2c(cc1-n1nc(C(=O)NCCN3CCC(C(=O)OCC4CCOCC4)CC3)c3cnc(-c4cnn5cccnc45)cc31)OCCN2 [Example 18]
Marked response: ≥ 8.30

Exam item: Same for COc1cc2c(cc1-n1nc(C(=O)NCCN3CCC(C(=O)OC4CC(C#N)C4)CC3)c3cnc(-c4cnn5cccnc45)cc31)OCCN2 (centres unmarked) [Example 47]
Marked response: ≥ 8.30

Exam item: Same for COc1cc2c(cc1-n1nc(C(=O)NCCN3CCC(C(=O)OCC4(C#N)CC4)CC3)c3cnc(-c4cnn5cccnc45)cc31)OCCN2 [Example 53]
Marked response: ≥ 8.30

Exam item: Same for CCSC(=O)C1CCN(CCNC(=O)c2nn(-c3cc4c(cc3OC)NCCO4)c3cc(-c4cnn5cccnc45)ncc23)CC1 [Example 59]
Marked response: ≥ 8.30

Exam item: Same for COc1cc2c(cc1-n1nc(C(=O)NCCN3CCC(C(=O)OC4CN(C)C4)CC3)c3cnc(-c4cnn5cccnc45)cc31)OCCN2 [Example 21]
Marked response: ≥ 8.30

Exam item: Same for CCOC(=O)COC(=O)Nc1nn(-c2cc3c(cc2OC)NCCS3)c2cc(-c3cnn4cccnc34)ncc12 [Example 3]
Marked response: ≥ 8.30

Exam item: Same for COc1cc2c(cc1-n1nc(C(=O)NCCN3CCC(C(=O)O[C@H]4CN(C)C[C@@H]4F)CC3)c3cnc(-c4cnn5cccnc45)cc31)OCCN2 [Example 50]
Marked response: ≥ 8.30
